# System: Amaranthus blitum
# experimental_protocol: Herbicidal activity against Amaranthus blitum assessed as weed growth inhibition at 75 g/ha pre-emergence treatment […]
# Assay type: functional
# measurement_context: read-out: GI
Consider the following compounds and their measured inhibition of growth at 75 g/ha readings.
property: inhibition of growth at 75 g/ha

• C#CCN1C(=O)COc2cc(F)c(N3C(=O)c4cccc(C)c4C3=O)cc21 = < 50%
• C#CCN1C(=O)COc2cc(F)c(N3C(=O)C4=C(CCCC4)C3=O)cc21 [FLUMIOXAZIN] = > 80%
• C#CCN1C(=O)C(C)Oc2cc(F)c(N3C(=O)c4cccc(F)c4C3=O)cc21 (stereo not given) = > 80%
• C#CCN1C(=O)COc2cc(F)c(N3C(=O)c4ccccc4C3=O)cc21 = > 80%
• C#CCN1C(=O)COc2cc(F)c(N3C(=O)c4ccc(F)cc4C3=O)cc21 = > 80%
• CN1C(=O)COc2cc(F)c(N3C(=O)c4ccc(F)cc4C3=O)cc21 = < 50%
• Cc1ccc2c(c1)C(=O)N(c1cc3c(cc1F)OC(C)C(=O)N3CC#CI)C2=O (stereo not given) = > 80%
• C#CCN1C(=O)C(C)Oc2cc(F)c(N3C(=O)c4ccc(C)cc4C3=O)cc21 (stereo not given) = > 80%
• C#CCN1C(=O)COc2cc(F)c(N3C(=O)c4cccc(F)c4C3=O)cc21 = > 80%
• O=C1COc2cc(F)c(N3C(=O)c4ccccc4C3=O)cc2N1CC#CBr = < 50%

###

# experimental_protocol: Phytotoxicity against Gossypium (cotton) assessed as growth inhibition at 15 g/ha post-emergence treatment measured after 15 days by crop-selectivity assay
# Format: organism-based
# measurement_context: in vivo, read-out: GI
property: inhibition at 360 h

* C#CCN1C(=O)COc2cc(F)c(N3C(=O)c4ccc(F)cc4C3=O)cc21 | > 10%
* C#CCN1C(=O)COc2cc(F)c(N3C(=O)C4=C(CCCC4)C3=O)cc21 | > 10%

###

# System: Abutilon theophrasti
# experimental_protocol: Herbicidal activity against Abutilon theophrasti (velvetleaf) assessed as weed growth inhibition at 75 g/ha pre-emergence treatment […]
# Assay type: functional
# measurement_context: read-out: GI
Consider the following compounds and their measured inhibition of growth at 75 g/ha readings.
property: inhibition of growth at 75 g/ha

* O=C1COc2cc(F)c(N3C(=O)c4ccccc4C3=O)cc2N1CC#CBr | < 50%
* CN1C(=O)COc2cc(F)c(N3C(=O)c4cccc(F)c4C3=O)cc21 | 50%
* CN1C(=O)COc2cc(F)c(N3C(=O)c4ccc(F)cc4C3=O)cc21 | < 50%
* C#CCN1C(=O)COc2cc(F)c(N3C(=O)c4cccc(C)c4C3=O)cc21 | < 50%
* C#CCN1C(=O)COc2cc(F)c(N3C(=O)c4ccc(C)cc4C3=O)cc21 | < 50%
* O=C1COc2cc(F)c(N3C(=O)c4ccccc4C3=O)cc2N1CC#CI | > 80%
* C#CCN1C(=O)C(C)Oc2cc(F)c(N3C(=O)c4ccc(C)cc4C3=O)cc21 (stereo not given) | > 80%
* O=C1COc2cc(F)c(N3C(=O)c4cccc(F)c4C3=O)cc2N1CC#CI | > 80%
* C#CCN1C(=O)C(C)Oc2cc(F)c(N3C(=O)c4ccccc4C3=O)cc21 (stereo not given) | > 80%
* N#CCN1C(=O)COc2cc(F)c(N3C(=O)c4ccccc4C3=O)cc21 | < 50%
* O=C1COc2cc(F)c(N3C(=O)C4=C(CCCC4)C3=O)cc2N1CC#CI | > 80%
* CC1Oc2cc(F)c(N3C(=O)c4cccc(F)c4C3=O)cc2N(CC#CI)C1=O (stereo not given) | > 80%
* C#CCN1C(=O)COc2cc(F)c(N3C(=O)c4ccccc4C3=O)cc21 | > 80%
* CC1Oc2cc(F)c(N3C(=O)c4ccccc4C3=O)cc2N(CC#CI)C1=O (stereo not given) | > 80%
* C#CCN1C(=O)C(C)Oc2cc(F)c(N3C(=O)c4cccc(F)c4C3=O)cc21 (stereo not given) | > 80%
* C#CCN1C(=O)COc2cc(F)c(N3C(=O)C4=C(CCCC4)C3=O)cc21 | > 80%
* C#CCN1C(=O)COc2cc(F)c(N3C(=O)c4cccc(F)c4C3=O)cc21 | > 80%
* C#CCN1C(=O)COc2cc(F)c(N3C(=O)c4cccc([N+](=O)[O-])c4C3=O)cc21 | < 50%
* Cc1ccc2c(c1)C(=O)N(c1cc3c(cc1F)OC(C)C(=O)N3CC#CI)C2=O (stereo not given) | > 80%
* C#CCN1C(=O)COc2cc(F)c(N3C(=O)c4ccc(F)cc4C3=O)cc21 | > 80%

###

# experimental_protocol: Phytotoxicity against Oryza sativa (rice) assessed as growth inhibition at 15 g/ha pre-emergence treatment measured after 15 days by crop-selectivity assay
# Format: organism-based
# measurement_context: in vivo, read-out: GI
property: inhibition at 360 h (%)

- C#CCN1C(=O)COc2cc(F)c(N3C(=O)c4ccc(F)cc4C3=O)cc21: 1

###

# System: Echinochloa crus-galli
# experimental_protocol: Herbicidal activity against Echinochloa crus-galli (barnyard grass) (barnyard grass) assessed as weed growth inhibition at 75 g/ha post-emergence treatment […]
# Assay type: functional
# measurement_context: read-out: GI
property: inhibition of growth at 75 g/ha

- C#CCN1C(=O)C(C)Oc2cc(F)c(N3C(=O)c4ccccc4C3=O)cc21 (stereo not given): < 50%
- O=C1COc2cc(F)c(N3C(=O)C4=C(CCCC4)C3=O)cc2N1CC#CI: > 80%
- Cc1ccc2c(c1)C(=O)N(c1cc3c(cc1F)OC(C)C(=O)N3CC#CI)C2=O (stereo not given): < 50%
- CN1C(=O)COc2cc(F)c(N3C(=O)c4cccc(F)c4C3=O)cc21: < 50%
- C#CCN1C(=O)COc2cc(F)c(N3C(=O)C4=C(CCCC4)C3=O)cc21: > 80%
- N#CCN1C(=O)COc2cc(F)c(N3C(=O)c4ccccc4C3=O)cc21: < 50%
- C#CCN1C(=O)C(C)Oc2cc(F)c(N3C(=O)c4cccc(F)c4C3=O)cc21 (stereo not given): > 80%
- CN1C(=O)COc2cc(F)c(N3C(=O)c4ccc(F)cc4C3=O)cc21: < 50%
- C#CCN1C(=O)COc2cc(F)c(N3C(=O)c4ccc(C)cc4C3=O)cc21: 50%
- C#CCN1C(=O)COc2cc(F)c(N3C(=O)c4cccc(C)c4C3=O)cc21: 50%

###

Consider the following compounds and their measured inhibition of growth at 75 g/ha readings.
# Test system: Amaranthus blitum
# experimental_protocol: Herbicidal activity against Amaranthus blitum assessed as weed growth inhibition at 75 g/ha post-emergence treatment […]
# Assay type: functional
# measurement_context: read-out: GI
property: inhibition of growth at 75 g/ha

* CN1C(=O)COc2cc(F)c(N3C(=O)c4ccc(F)cc4C3=O)cc21 | < 50%
* O=C1COc2cc(F)c(N3C(=O)c4ccccc4C3=O)cc2N1CC#CI | > 80%
* C#CCN1C(=O)COc2cc(F)c(N3C(=O)c4cccc(F)c4C3=O)cc21 | > 80%
* C#CCN1C(=O)C(C)Oc2cc(F)c(N3C(=O)c4cccc(F)c4C3=O)cc21 (stereo not given) | > 80%
* CN1C(=O)COc2cc(F)c(N3C(=O)c4cccc(F)c4C3=O)cc21 | > 80%

###

# experimental_protocol: Phytotoxicity against Triticum aestivum (wheat) assessed as growth inhibition at 30 g/ha pre-emergence treatment measured after 15 days by crop-selectivity assay
# Format: organism-based
# measurement_context: in vivo, 30 g/ha, read-out: GI
property: inhibition at 360 h

- C#CCN1C(=O)COc2cc(F)c(N3C(=O)C4=C(CCCC4)C3=O)cc21: > 10%

###

# Tested on: Amaranthus blitum
# experimental_protocol: Herbicidal activity against Amaranthus blitum assessed as weed growth inhibition at 75 g/ha post-emergence treatment […]
# Type: functional
# measurement_context: read-out: GI
property: inhibition of growth at 75 g/ha

* C#CCN1C(=O)COc2cc(F)c(N3C(=O)c4ccc(F)cc4C3=O)cc21 | > 80%
* C#CCN1C(=O)COc2cc(F)c(N3C(=O)c4cccc([N+](=O)[O-])c4C3=O)cc21 | < 50%
* O=C1COc2cc(F)c(N3C(=O)c4cccc(F)c4C3=O)cc2N1CC#CI | > 80%
* C#CCN1C(=O)COc2cc(F)c(N3C(=O)c4ccc(C)cc4C3=O)cc21 | > 80%
* N#CCN1C(=O)COc2cc(F)c(N3C(=O)c4ccccc4C3=O)cc21 | < 50%

###

Consider the following compounds and their measured inhibition of growth at 75 g/ha readings.
# System: Amaranthus blitum
# experimental_protocol: Herbicidal activity against Amaranthus blitum assessed as weed growth inhibition at 75 g/ha pre-emergence treatment […]
# Assay type: functional
# measurement_context: read-out: GI
property: inhibition of growth at 75 g/ha

• CN1C(=O)COc2cc(F)c(N3C(=O)c4cccc(F)c4C3=O)cc21 = 50%
• C#CCN1C(=O)COc2cc(F)c(N3C(=O)c4cccc([N+](=O)[O-])c4C3=O)cc21 = < 50%
• CC1Oc2cc(F)c(N3C(=O)c4ccccc4C3=O)cc2N(CC#CI)C1=O (stereo not given) = > 80%
• O=C1COc2cc(F)c(N3C(=O)c4ccccc4C3=O)cc2N1CC#CI = > 80%
• C#CCN1C(=O)C(C)Oc2cc(F)c(N3C(=O)c4ccccc4C3=O)cc21 (stereo not given) = > 80%
• C#CCN1C(=O)COc2cc(F)c(N3C(=O)c4ccc(C)cc4C3=O)cc21 = < 50%
• CC1Oc2cc(F)c(N3C(=O)c4cccc(F)c4C3=O)cc2N(CC#CI)C1=O (stereo not given) = > 80%
• N#CCN1C(=O)COc2cc(F)c(N3C(=O)c4ccccc4C3=O)cc21 = < 50%
• O=C1COc2cc(F)c(N3C(=O)C4=C(CCCC4)C3=O)cc2N1CC#CI = > 80%
• O=C1COc2cc(F)c(N3C(=O)c4cccc(F)c4C3=O)cc2N1CC#CI = > 80%

Origin of values: ChEMBL document CHEMBL3045292
